test system: Escherichia coli TOP10; assay: shrunken log2 fold change of peptide-encoding DNA abundance (4.5 h post-induction vs induction); higher = less antimicrobial activity (less host growth inhibition); conditions: time post-induction: 4.5 h; library: site-saturation at positions 5, 18, 19, 20
Each entry below lists one item and its recorded shrunken log2 fold change value.
The reply should be a number, written without any unit.

// solved cases for shrunken log2 fold change follow
Ask | Lookup: shrunken log2 fold change / Escherichia coli TOP10 / RRIRFRPPRLPRPRPRPHHEPRP
Reply | -0.515

Ask | Try the sequence RRIRVRPPRLPRPRPRPFDTPRP
Reply | -0.847

Ask | Repeat for the following sequence: RRIRHRPPRLPRPRPRPSSFPRP
Reply | 0.0395

Ask | Do the same for RRIRWRPPRLPRPRPRPWMQPRP please
Reply | -0.147

***
Ask | Report shrunken log2 fold change for RRIRWRPPRLPRPRPRPGQCPRP tested on Escherichia coli TOP10.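 Further: peptides expressed intracellularly from a pBAD plasmid library in pooled LB shake-flask culture, induced with 0.3% L-arabinose, DNA abundance read by NGS, three biological replicates, DESeq2 with apeglm shrinkage.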
Reply | 0.00553

Ask | Consider next the sequence RRIRHRPPRLPRPRPRPHLEPRP in the same way.
Reply | -0.0228

Ask | Next sequence up: RRIRIRPPRLPRPRPRPGQSPRP
Reply | 0.0669

Ask | And for RRIRARPPRLPRPRPRPAMEPRP ?
Reply | 0.372

Ask | Further, for RRIRVRPPRLPRPRPRPDRGPRP ?
Reply | -0.0555

Taken from the supplement of paper PMC9112550.
